assayedSystem: PSMA (PSMA-expressing LNCaP cells) (Homo sapiens)
Sequence (Q04609 whole entry): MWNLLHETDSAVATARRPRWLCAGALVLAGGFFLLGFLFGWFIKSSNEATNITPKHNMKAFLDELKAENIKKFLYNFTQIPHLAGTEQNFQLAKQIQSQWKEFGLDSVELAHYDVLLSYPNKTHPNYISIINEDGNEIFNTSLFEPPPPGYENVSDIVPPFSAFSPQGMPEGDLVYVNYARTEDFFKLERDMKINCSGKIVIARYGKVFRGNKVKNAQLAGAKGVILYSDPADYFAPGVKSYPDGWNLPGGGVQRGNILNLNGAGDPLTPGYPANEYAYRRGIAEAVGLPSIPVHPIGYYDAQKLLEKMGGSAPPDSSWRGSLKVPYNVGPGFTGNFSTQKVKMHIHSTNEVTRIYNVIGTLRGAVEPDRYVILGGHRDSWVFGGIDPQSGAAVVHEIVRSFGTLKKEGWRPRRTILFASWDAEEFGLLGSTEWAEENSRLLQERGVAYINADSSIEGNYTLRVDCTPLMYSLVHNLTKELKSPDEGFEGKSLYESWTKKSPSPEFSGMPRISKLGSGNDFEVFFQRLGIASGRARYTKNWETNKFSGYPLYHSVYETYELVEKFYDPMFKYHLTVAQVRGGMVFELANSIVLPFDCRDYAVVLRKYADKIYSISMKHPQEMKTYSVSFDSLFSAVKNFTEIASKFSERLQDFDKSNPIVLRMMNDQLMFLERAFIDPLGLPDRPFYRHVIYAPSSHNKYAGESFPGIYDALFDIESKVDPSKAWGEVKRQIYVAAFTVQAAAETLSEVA
assay: LNCaP cell binding study
testContext: PSMA-positive LNCaP cells in culture, 1 h at 37 °C
Numbered stars: 1 amine (or outer) side, 2 acyl side, 3 side chain; on linkers, the order of the positions; unused ones are H or OH. Square brackets hold non-standard residues; d marks the D form. Side chains are listed from the residue outwards. Peptide text beside a SMILES is read from it. γGlu = O=C(O)[C@H](CCC(=O)[*:2])N[*:1]; Dap = NC[C@H](N)C(=O)O; Aoc = NCCCCCCCC(=O)O; CO = O=C([*:1])[*:2]

| molecule | Kd, nM |
| --- | --- |
| N[C@@H](CNC(=O)[C@H](CCC(=O)O)NC(=O)[C@H](Cc1ccccc1)NC(=O)CCCCCCCNC(=O)CC[C@H](NC(=O)N[C@@H](CCC(=O)O)C(=O)O)C(=O)O)C(=O)N[C@@H](CC(=O)O)C(=O)N[C@@H](CS)C(=O)O [compound 6] (H-[Dap]([Glu-Phe-Aoc-γGlu-CO-Glu])-Asp-Cys-OH) | 31 |
| N[C@@H](CNC(=O)[C@H](Cc1ccccc1)NC(=O)[C@H](Cc1ccccc1)NC(=O)CCCCCCCNC(=O)CC[C@H](NC(=O)N[C@@H](CCC(=O)O)C(=O)O)C(=O)O)C(=O)N[C@@H](CC(=O)O)C(=O)N[C@@H](CS)C(=O)O [compound 5] (H-[Dap]([Phe-Phe-Aoc-γGlu-CO-Glu])-Asp-Cys-OH) | 13.8 |
